Reported MIC by item:
- Tested on: Staphylococcus aureus
- ASSAY_SUMMARY: Antibacterial activity against methicillin-resistant Staphylococcus aureus clinical isolate 8 incubated for 16 to 18 hrs by CLSI-based microbroth dilution method
- Format: functional
- MEASUREMENT_CONTEXT: time 16-18 hrs
QUANTITY_NAME: MIC (µg/mL)

| SMILES_STRING | ENDPOINT_VALUE |
| --- | --- |
| CCCCCCNC(=O)C[N+](C)(C)CCCOc1ccc(/C=C/C(=O)c2c(OC)cc3c(c2O)C=CC(C)(C)O3)cc1.[Br-] | 2 |
| CCCN(CCC)C(=O)C[N+](C)(C)CCCCCOc1ccc(/C=C/C(=O)c2c(OC)cc3c(c2O)C=CC(C)(C)O3)cc1.[Br-] | 2 |
| CCCCNC(=O)C[N+](C)(C)CCCOc1ccc(/C=C/C(=O)c2c(OC)cc3c(c2O)C=CC(C)(C)O3)cc1.[Br-] | 2 |
| CCCNC(=O)C[N+](C)(C)CCCCCOc1ccc(/C=C/C(=O)c2c(OC)cc3c(c2O)C=CC(C)(C)O3)cc1.[Br-] | 2 |
| CCCCNC(=O)C[N+](C)(C)CCCCOc1ccc(/C=C/C(=O)c2c(OC)cc3c(c2O)C=CC(C)(C)O3)cc1.[Br-] | 4 |
| CCCCN(CCCC)C(=O)C[N+](C)(C)CCCCCOc1ccc(/C=C/C(=O)c2c(OC)cc3c(c2O)C=CC(C)(C)O3)cc1.[Br-] | 4 |
| CCCCN(CCCC)C(=O)C[N+](C)(C)CCCOc1ccc(/C=C/C(=O)c2c(OC)cc3c(c2O)C=CC(C)(C)O3)cc1.[Br-] | 1 |
| COc1cc2c(c(O)c1C(=O)/C=C/c1ccc(O)cc1)C=CC(C)(C)O2 | 4 |
| CCCNC(=O)C[N+](C)(C)CCCCOc1ccc(/C=C/C(=O)c2c(OC)cc3c(c2O)C=CC(C)(C)O3)cc1.[Br-] | 2 |
| COc1cc2c(c(O)c1C(=O)/C=C/c1ccc(OCCCC[N+](C)(C)CC(=O)N(C(C)C)C(C)C)cc1)C=CC(C)(C)O2.[Br-] | 2 |
